pIC50 values for the compounds below.
- Tested Target: Human DP1 receptor (Homo sapiens (Human), UniProt Q13258)
- Sequence (Q13258 whole entry): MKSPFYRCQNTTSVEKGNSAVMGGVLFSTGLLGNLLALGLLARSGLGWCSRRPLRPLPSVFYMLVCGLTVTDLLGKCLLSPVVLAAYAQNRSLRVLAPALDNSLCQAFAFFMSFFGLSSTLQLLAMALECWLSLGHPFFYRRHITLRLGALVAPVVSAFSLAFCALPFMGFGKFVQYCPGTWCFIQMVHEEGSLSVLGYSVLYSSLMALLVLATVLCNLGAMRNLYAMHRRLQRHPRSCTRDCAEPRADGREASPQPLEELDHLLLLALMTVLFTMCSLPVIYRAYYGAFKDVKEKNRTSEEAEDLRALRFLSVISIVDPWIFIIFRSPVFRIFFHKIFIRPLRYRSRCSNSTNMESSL
- Test Name: Human DP1 inhibitory activity in DP1-expressing cell (PGD2-induced cAMP)
- Type: cell-based
- Cond: category of cAMP IC50, human DP1 receptor expressing Jurkut cell
pIC50: −log10 of the molar value.

Sample answers from the record:
Given Smiles: COc1ccc(S(=O)(=O)N2C[C@@H](C)[C@@H](n3nc(CC(=O)O)c4ccc(C(F)(F)F)cc43)C2)cc1
Tested Target: Human DP1 receptor (Homo sapiens (Human), UniProt Q13258)
Observed Property: pIC50
Value: > 7.00
--
Given Smiles: CC[C@H]1C[C@@H](n2nc(CC(=O)O)c3ccc(F)cc32)CN1S(=O)(=O)c1ccc(OC(C)C)cc1
Tested Target: Human DP1 receptor (Homo sapiens (Human), UniProt Q13258)
Observed Property: pIC50
Value: > 7.00

We now examine a further compound.
QUERY: I have this compound here, CC(C)Oc1ccc(S(=O)(=O)N2C[C@H](n3nc(CC(=O)O)c4ccc(F)cc43)C[C@@H]2C)cc1 , and I need its recorded pIC50.
RESULT: > 7.00
